Kindly supply the reported kon values for the records listed here.
target: T1, recombinant human PDGF-CC active core domain protein with terminal histidine tag (human, UniProt Q9NRA1 231-345); experiment: SPR, BIAcore 2000, His-tagged PDGF-CC on Ni-NTA chip, antibody as analyte, 1:1 Langmuir fit (apparent)
T1 construct: Made in baculovirus-infected Sf9 cells; The position of the tag in the chain is not known; also called RhPC; RhPCc; not shown: terminal histidine tag
T1 sequence (Q9NRA1 231-345 limits assumed): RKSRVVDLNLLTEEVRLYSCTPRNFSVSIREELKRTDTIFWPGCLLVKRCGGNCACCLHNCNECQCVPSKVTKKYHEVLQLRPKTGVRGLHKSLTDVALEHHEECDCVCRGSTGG
Answers are plain numbers, in M⁻¹ s⁻¹.

monoclonal antibody 19C7 (antibody, mouse IgG2a, V domains shown, Murine IgG2a, kappa light chain) VH: QVQLQQSGVEVARPGASVKLSCKASGYTFRSYGITWVRQRTGQGLEWIGEIYPRSGKTYYNEKFKGKATLTADTSSSTVYMELRSLTSEDSAVYFCAREGYGYDGGYFDYWGQGTTLTVSS VL: DIVMTQSPSSLAMSVGQKVTMSCKSSQSLLNSRNQKNYLAWYQQKPGQSPKLLVYFASTRESGVPDRFTGSGSGTDFTLTISSVQAEDLAVYYCQQHYSTPLTFGAGTKLELKR
2.2e+06

Field: next binder
Can you look up the measured kon of chimeric anti-PDGF-CC antibody 6B3 (ch6B3) (antibody, V domains shown, also called chimeric 6B3; mouse-human chimeric antibody 6B3) VH: QVQLQQSGVEVARPGASVKLSCKASGYTFGSYGITWVRQRTGQGLEWIGEIYPRSGKTYYNEKFKGKATLTADTSSSTVYMELRSLTSEDSAVYFCAREGYGYDGGYFDYWGQGTTLTVSS VL: DIVMTQSPSSLAMSVGQKVTMSCKSSQSLLNSRNQKNYLAWYQQKPGQSPKLLVYFASTRESGVPDRFTGSGSGTDFTLTISSVQAEDLAVYYCQQHYSTPLTFGAGTKLELKR for me?
600000
